- System: A549
- TEST METHOD NOTES: Antiproliferative activity against human A549 cells
- Format: functional, cell-based
pIC50: −log10 of the molar value.
pIC50 below 5 gives no (0); pIC50 at or above it gives yes (1).

{"columns": ["SMILES ENTRY", "SYSTEM TESTED", "CAT"],
 "data": [
  ["O=C1C(Cl)=C(Nc2ccc(N3CCOCC3)cc2)C(=O)c2ccccc21", "A549", "no (0)"],
  ["O=C1C(Cl)=C(Nc2ccc([N+](=O)[O-])cc2)C(=O)c2ccccc21", "A549", "no (0)"],
  ["O=C1C(Cl)=C(NCCCN2CCCC2=O)C(=O)c2ccccc21", "A549", "no (0)"]
]}

Alright, here's another compound for you.
Request: Quick check: does O=C1C(Cl)=C(Nc2ccc(Oc3ccccc3)cc2)C(=O)c2ccccc21 have pIC50 greater than or equal to 5?
Result: yes (1)

---

Provide the reported IC50 of each item.
- TEST METHOD NOTES: Inhibition of chymotrypsin-like activity of human 20s proteasome
Give bare numbers, in µM.

Below are worked cases with known answers.
{"columns": ["SMILES ENTRY", "UNIT DESCRIPTOR", "IC50"],
 "data": [
  ["O=C1C(Cl)=C(Nc2ccc([N+](=O)[O-])cc2)C(=O)c2ccccc21", "µM", 3.65],
  ["O=C1C(Cl)=C(Nc2ccc(S(=O)(=O)Nc3ccccn3)cc2)C(=O)c2ccccc21", "µM", 18.6]
]}

Data point: CC(=O)N[C@@H](CSC(=O)[C@]1([C@@H](O)C(C)C)NC(=O)[C@H](C)[C@@H]1O)C(=O)O ; IC50 = 10.1

---

- Tested on: DU-145
- TEST METHOD NOTES: Antiproliferative activity against human DU145 cells
- Format: functional, cell-based
Can you tell me IC50 for the items I'm about to list?
Give bare numbers, in µM.

Recorded results for 3 molecules are shown here.
{"columns": ["SMILES ENTRY", "SYSTEM TESTED", "IC50 [µM]"],
 "data": [
  ["COc1cc(NC(=O)c2ccc(NC3=C(Cl)C(=O)c4ccccc4C3=O)cc2)cc(OC)c1", "DU-145", 10.5],
  ["O=C1C(Cl)=C(Nc2ccc(C(=O)N3CCOCC3)cc2)C(=O)c2ccccc21", "DU-145", 13.7],
  ["O=C1C(Cl)=C(NCCCN2CCCC2=O)C(=O)c2ccccc21", "DU-145", 18.1]
]}

For every listed record, write down its IC50.
1. O=C1C(Cl)=C(Nc2ccc(Oc3ccccc3)cc2)C(=O)c2ccccc21
2. O=C1C(Cl)=C(Nc2ccc([N+](=O)[O-])cc2)C(=O)c2ccccc21
3. O=C1C(Cl)=C(Nc2ccc(N3CCOCC3)cc2)C(=O)c2ccccc21

Result:
[4.55, 18.3, 15.8]

Record O=C1C(Cl)=C(Nc2ccc(S(=O)(=O)Nc3ccccn3)cc2)C(=O)c2ccccc21 has DU-145 IC50 equal to 10.8

---

- Test system: HeLa-GFP
- TEST METHOD NOTES: Inhibition of proteasome in human HeLa-GFP cells at 10 ug/ml
Activity calls are given as the source filed them. No cut-off for these calls is given here.
Form entry, call: pick from active, inactive

Please review the entries below; each comes with its answer.
{"columns": ["SMILES ENTRY", "CAT"],
 "data": [
  ["COc1cc(NC(=O)c2ccc(NC3=C(Cl)C(=O)c4ccccc4C3=O)cc2)cc(OC)c1", "inactive"],
  ["O=C1C(Cl)=C(NCCCN2CCCC2=O)C(=O)c2ccccc21", "inactive"],
  ["O=C1C(Cl)=C(Nc2ccc(S(=O)(=O)Nc3ccccn3)cc2)C(=O)c2ccccc21", "inactive"],
  ["O=C1C(Cl)=C(Nc2ccc(C(=O)N3CCOCC3)cc2)C(=O)c2ccccc21", "inactive"],
  ["O=C1C(Cl)=C(Nc2ccc(N3CCOCC3)cc2)C(=O)c2ccccc21", "inactive"]
]}

Request: Look up the recorded call for O=C1C(Cl)=C(Nc2ccc([N+](=O)[O-])cc2)C(=O)c2ccccc21 in this test.
Result: active

Request: In this assay, the call recorded for O=C1C(Cl)=C(Nc2ccc(Oc3ccccc3)cc2)C(=O)c2ccccc21 was what?
Result: inactive

Entry source: ChEMBL document CHEMBL2016438
